Hey, just so you know, these numbers are from ChEMBL document CHEMBL1909294.

Test system Hepatotoxicity, HepSE_hepatitis listed for each of the compounds.
QUANTITY: HepSE_hepatitis

compound="CC(=O)CCCCn1c(=O)c2c(ncn2C)n(C)c1=O [PENTOXIFYLLINE]" tested_system=Hepatotoxicity result=1
compound="CC(C(=O)O)c1cccc(C(=O)c2ccccc2)c1 (configuration not stated) [KETOPROFEN]" tested_system=Hepatotoxicity result=1
compound="C[C@H]1c2cccc(O)c2C(=O)C2=C(O)[C@]3(O)C(=O)C(C(N)=O)=C(O)[C@@H](N(C)C)[C@@H]3[C@@H](O)[C@@H]21.O [DOXYCYCLINE]" tested_system=Hepatotoxicity result=0
compound="CCCC(C)C1(CC)C(=O)NC(=O)NC1=O (configuration not stated) [PENTOBARBITAL]" tested_system=Hepatotoxicity result=0
compound="CC(C)=CCN1CC[C@]2(C)c3cc(O)ccc3C[C@H]1[C@H]2C [(+)-PENTAZOCINE]" tested_system=Hepatotoxicity result=0
compound="CN(C)c1cc(NC(=O)CNC(C)(C)C)c(O)c2c1C[C@H]1C[C@H]3[C@H](N(C)C)C(O)=C(C(N)=O)C(=O)[C@@]3(O)C(O)=C1C2=O [TIGECYCLINE]" tested_system=Hepatotoxicity result=0
compound="CC1=C(C/C=C(\\C)CCC[C@H](C)CCC[C@H](C)CCCC(C)C)C(=O)c2ccccc2C1=O [PHYTONADIONE]" tested_system=Hepatotoxicity result=0

====

HepSE_Combined Scores, Hepatotoxicity, per-entry values.
QUANTITY: HepSE_Combined Scores

molecule="CSc1ccc2c(c1)N(CCC1CCCCN1C)c1ccccc1S2 (stereo unspecified)" result=1
molecule=COC(=O)Nc1nc2ccc(C(=O)c3ccccc3)cc2[nH]1 result=1
molecule="CC1(C)O[C@@H]2[C@@H](CO[C@@]3(COS(N)(=O)=O)OC(C)(C)O[C@@H]23)O1 [TOPIRAMATE]" result=2
molecule=[Mg] result=0
molecule="COc1cc2c(cc1OC)C(=O)C(CC1CCN(Cc3ccccc3)CC1)C2 (stereo unspecified)" result=6
molecule="CN(C)C(=O)C(CCN1CCC(O)(c2ccc(Cl)cc2)CC1)(c1ccccc1)c1ccccc1 [LOPERAMIDE]" result=0
